Give selectivity ratio for every item shown.
ASSAY_REMARKS: Therapeutic index, ratio of LD50 for toxicity in ICR mouse to ED50 for anesthetic effect in ICR mouse
Assay type: organism-based
CONDITION: in vivo, read-out: Ratio LD50/ED50
Give bare numbers.

1. CC(C)c1cccc(C(C)C)c1O    2.7

Could you now look at the following compound, please?
Which selectivity ratio is reported for this compound? CC(C)c1ccc2c(c1O)C(C)(N=[N+]=[N-])C2 (racemic)
5.9

Values compiled from ChEMBL document CHEMBL4177559.
